Test system: UT-SCC-10
Experiment: cells
Details: Homo sapiens, 72 h, read-out: cytotoxicity IC50 UT-SCC-10
quantityName: pIC50
Notebook: values listed as pIC50 are -log10 of the concentration (mol/L).

Return pIC50 (reported value) for this compound: CC[C@@]1(O)C(=O)OCc2c1cc1n(c2=O)Cc2cc3cc(OCc4cc5cc(OC)cc(OC)c5o4)ccc3nc2-1
6.68

* * *

Test system: CHO/CYP1B1 cells
Details: Chinese hamster
quantityName: IC50

Return IC50 (reported value) for this compound: O=P(O)(NCCCl)NCCCl [Cl-IPM, N,N-bis(2-chloro-ethyl)phosphoramide, reference compound]
8 nM

* * *

Target: CYP1B1 (Homo sapiens, UniProt Q16678)
Sequence (Q16678 whole entry): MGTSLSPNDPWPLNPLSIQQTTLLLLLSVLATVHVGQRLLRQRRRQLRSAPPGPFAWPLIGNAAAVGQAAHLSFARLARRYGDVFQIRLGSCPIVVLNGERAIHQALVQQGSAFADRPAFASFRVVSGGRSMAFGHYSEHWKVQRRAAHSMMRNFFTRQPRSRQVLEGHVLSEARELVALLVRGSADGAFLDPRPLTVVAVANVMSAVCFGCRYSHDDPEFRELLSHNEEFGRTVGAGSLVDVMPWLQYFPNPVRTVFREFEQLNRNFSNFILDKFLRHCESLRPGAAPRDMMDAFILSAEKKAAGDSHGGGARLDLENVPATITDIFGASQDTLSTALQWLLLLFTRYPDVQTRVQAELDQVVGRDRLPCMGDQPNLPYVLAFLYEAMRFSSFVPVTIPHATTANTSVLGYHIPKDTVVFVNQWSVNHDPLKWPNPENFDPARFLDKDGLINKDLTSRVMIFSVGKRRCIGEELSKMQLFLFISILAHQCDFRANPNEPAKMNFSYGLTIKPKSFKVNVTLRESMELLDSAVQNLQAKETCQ
Assay: CYP1B1 substrate prediction model (Gaussian Kernel weighted k-NN)
Conditions: predicted versus actual
% CYP1B1 substrate inhibition accuracy: recorded values
Please state the figure in %; there is no need to write the unit.

Study these solved cases before continuing.
Return % CYP1B1 substrate inhibition accuracy (reported value) for this compound: COc1cc(OC)c2oc(COP(=O)(NCCCl)NCCCl)cc2c1 [SU025-04]
96

Return % CYP1B1 substrate inhibition accuracy (reported value) for this compound: C[C@]12CC[C@@H]3c4ccc(O)cc4CC[C@H]3[C@@H]1CC[C@@H]2O [β-estradiol, reference compound]
95

Return % CYP1B1 substrate inhibition accuracy (reported value) for this compound: CCOc1ccc2nc3ccc(=O)cc-3oc2c1 [ethoxyresorufin, 7-ethoxyresorufin]
95

Return % CYP1B1 substrate inhibition accuracy (reported value) for this compound: COc1cc(OC)c2oc(COP(=O)(NCCBr)NCCBr)cc2c1 [SU046-04]
96

From here, focus on the item given below.
Return % CYP1B1 substrate inhibition accuracy (reported value) for this compound: C=C[C@H]1C[N@@]2CC[C@H]1C[C@@H]2[C@@H](O)c1ccnc2ccc(OC)cc12 [quinidine]
64
